src = the supplement of paper PMC10724198

# System: Saccharomyces cerevisiae;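 note: PSI is a weighted mean of sequencing reads over stability bins, variants kept only with over 10 reads, mCherry proximal and sfGFP distal, peptide attached via GGGS linker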
# Method: protein stability index of tFT-peptide fusion (C-terminal peptide) (PSI (0-1 scale)); higher = more stable (slower turnover)
# Conditions Used: genetic background: wild type; temperature: 30 C

{"Record Sequence": "NTNPVHLKTHQT", "Assayed Target": "Saccharomyces cerevisiae", "protein stability index": 0.713}
{"Record Sequence": "RIKHKNRNKKKN", "Assayed Target": "Saccharomyces cerevisiae", "protein stability index": 0.791}
{"Record Sequence": "NARGRGAGGAST", "Assayed Target": "Saccharomyces cerevisiae", "protein stability index": 0.626}
{"Record Sequence": "GVRRVVKGTKGC", "Assayed Target": "Saccharomyces cerevisiae", "protein stability index": 0.662}
{"Record Sequence": "PWWSRPAASVGV", "Assayed Target": "Saccharomyces cerevisiae", "protein stability index": 0.659}
{"Record Sequence": "GWWVVTLRSGLR", "Assayed Target": "Saccharomyces cerevisiae", "protein stability index": 0.651}
{"Record Sequence": "VTEGVGGGKGRG", "Assayed Target": "Saccharomyces cerevisiae", "protein stability index": 0.597}
{"Record Sequence": "EQSERINKKARK", "Assayed Target": "Saccharomyces cerevisiae", "protein stability index": 0.67}
{"Record Sequence": "TSASLLLSFAVP", "Assayed Target": "Saccharomyces cerevisiae", "protein stability index": 0.677}
{"Record Sequence": "LPARSLPPPRPP", "Assayed Target": "Saccharomyces cerevisiae", "protein stability index": 0.653}
{"Record Sequence": "APPFRYLNSVSC", "Assayed Target": "Saccharomyces cerevisiae", "protein stability index": 0.66}
{"Record Sequence": "QGELHRDVYIVI", "Assayed Target": "Saccharomyces cerevisiae", "protein stability index": 0.679}
{"Record Sequence": "KGEGRERSRSRK", "Assayed Target": "Saccharomyces cerevisiae", "protein stability index": 0.768}
{"Record Sequence": "VVGHGLAGCKVG", "Assayed Target": "Saccharomyces cerevisiae", "protein stability index": 0.668}
{"Record Sequence": "HYSMAPIPHDNR", "Assayed Target": "Saccharomyces cerevisiae", "protein stability index": 0.711}
{"Record Sequence": "PVPPPPPPPLPP", "Assayed Target": "Saccharomyces cerevisiae", "protein stability index": 0.6}
{"Record Sequence": "LPLQYPPSLLRL", "Assayed Target": "Saccharomyces cerevisiae", "protein stability index": 0.665}
{"Record Sequence": "SCVSCACPVYWR", "Assayed Target": "Saccharomyces cerevisiae", "protein stability index": 0.662}
{"Record Sequence": "RLCLLLCCRLWL", "Assayed Target": "Saccharomyces cerevisiae", "protein stability index": 0.496}
{"Record Sequence": "PPPRLTVPIPSS", "Assayed Target": "Saccharomyces cerevisiae", "protein stability index": 0.648}
{"Record Sequence": "RSDCLIDSRMVD", "Assayed Target": "Saccharomyces cerevisiae", "protein stability index": 0.694}
{"Record Sequence": "LLPPPPTPDPGP", "Assayed Target": "Saccharomyces cerevisiae", "protein stability index": 0.645}
{"Record Sequence": "ELLTCSSSVMLL", "Assayed Target": "Saccharomyces cerevisiae", "protein stability index": 0.799}
{"Record Sequence": "ARVRAQIRDGRT", "Assayed Target": "Saccharomyces cerevisiae", "protein stability index": 0.64}
{"Record Sequence": "RGGRGLECAFYI", "Assayed Target": "Saccharomyces cerevisiae", "protein stability index": 0.79}
{"Record Sequence": "NRELTAVTFQRY", "Assayed Target": "Saccharomyces cerevisiae", "protein stability index": 0.709}
{"Record Sequence": "PSPSAPPPLSPL", "Assayed Target": "Saccharomyces cerevisiae", "protein stability index": 0.546}
{"Record Sequence": "FTSPNGVRVCFH", "Assayed Target": "Saccharomyces cerevisiae", "protein stability index": 0.843}
{"Record Sequence": "KLVKWEGGYIVS", "Assayed Target": "Saccharomyces cerevisiae", "protein stability index": 0.61}
{"Record Sequence": "RGSCPFQSWRCS", "Assayed Target": "Saccharomyces cerevisiae", "protein stability index": 0.59}
{"Record Sequence": "LGGASNGCSTLK", "Assayed Target": "Saccharomyces cerevisiae", "protein stability index": 0.718}
{"Record Sequence": "PPPARLSLPPPD", "Assayed Target": "Saccharomyces cerevisiae", "protein stability index": 0.694}
{"Record Sequence": "FPPRLIPLLARS", "Assayed Target": "Saccharomyces cerevisiae", "protein stability index": 0.372}
{"Record Sequence": "VSLPMAPPPLDG", "Assayed Target": "Saccharomyces cerevisiae", "protein stability index": 0.616}
{"Record Sequence": "GEGRAAGEIGGV", "Assayed Target": "Saccharomyces cerevisiae", "protein stability index": 0.707}
{"Record Sequence": "GPPFPPLPLPPP", "Assayed Target": "Saccharomyces cerevisiae", "protein stability index": 0.658}
{"Record Sequence": "PPPPRSLPLLPP", "Assayed Target": "Saccharomyces cerevisiae", "protein stability index": 0.67}
{"Record Sequence": "AVFHPPPILPPP", "Assayed Target": "Saccharomyces cerevisiae", "protein stability index": 0.702}
{"Record Sequence": "CYAVEACWASCA", "Assayed Target": "Saccharomyces cerevisiae", "protein stability index": 0.597}
{"Record Sequence": "CVSTYLTCSITS", "Assayed Target": "Saccharomyces cerevisiae", "protein stability index": 0.54}
{"Record Sequence": "GGGRPDRPQRAI", "Assayed Target": "Saccharomyces cerevisiae", "protein stability index": 0.741}
{"Record Sequence": "EGGGGGAGDARR", "Assayed Target": "Saccharomyces cerevisiae", "protein stability index": 0.685}
{"Record Sequence": "GNRYLCIEVTWV", "Assayed Target": "Saccharomyces cerevisiae", "protein stability index": 0.48}
{"Record Sequence": "PPPSSAPPPTPP", "Assayed Target": "Saccharomyces cerevisiae", "protein stability index": 0.607}
{"Record Sequence": "YGFLRSWCICDT", "Assayed Target": "Saccharomyces cerevisiae", "protein stability index": 0.729}
{"Record Sequence": "WSFPFFLLPFLF", "Assayed Target": "Saccharomyces cerevisiae", "protein stability index": 0.296}
{"Record Sequence": "GLGVPCDFRVVA", "Assayed Target": "Saccharomyces cerevisiae", "protein stability index": 0.694}
{"Record Sequence": "GWSCGGVGGGLG", "Assayed Target": "Saccharomyces cerevisiae", "protein stability index": 0.71}
{"Record Sequence": "AIDLCIAVVGMV", "Assayed Target": "Saccharomyces cerevisiae", "protein stability index": 0.444}
